Molecular target: T1, E-selectin (ES-Rg) (Homo sapiens, UniProt P16581 P16581:22-556)
T1 chain: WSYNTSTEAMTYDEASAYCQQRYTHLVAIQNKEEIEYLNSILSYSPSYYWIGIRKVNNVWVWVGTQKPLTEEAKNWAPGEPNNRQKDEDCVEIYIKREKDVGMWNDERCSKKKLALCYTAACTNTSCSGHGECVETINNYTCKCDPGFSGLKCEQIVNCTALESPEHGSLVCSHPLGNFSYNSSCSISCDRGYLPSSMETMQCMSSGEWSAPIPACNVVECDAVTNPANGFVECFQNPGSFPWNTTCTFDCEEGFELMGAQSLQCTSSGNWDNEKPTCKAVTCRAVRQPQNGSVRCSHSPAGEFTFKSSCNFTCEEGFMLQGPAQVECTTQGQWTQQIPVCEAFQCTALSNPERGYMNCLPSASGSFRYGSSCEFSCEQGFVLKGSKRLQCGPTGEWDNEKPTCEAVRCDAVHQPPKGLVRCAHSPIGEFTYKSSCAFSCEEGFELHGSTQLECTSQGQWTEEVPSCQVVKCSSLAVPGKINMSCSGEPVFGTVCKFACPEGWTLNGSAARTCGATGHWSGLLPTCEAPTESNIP
Assay: filter; room temp, Ca/Mg buffer
Settings: tags: extracellular domain fused to human IgG1 Fc (provided by A. Varki); chain copies: 2 (dimeric Fc chimera, inferred)
Item-by-item account of Kd
Return type: number; implicit unit nM.

The reported value for 201 (ssDNA) DNA: CTACCTACGATCTGACTAGCCAAGGTAACCAGTACAAGGTGCTAAACGTAATGGCTTCGGCTTACTCTCATGTAGTTCC in terms of Kd is 37

Documented Kd of 181 (ssDNA) DNA: CTACCTACGATCTGACTAGCCATCAAGGACTTTGCCCGAAACCCTAGGTTCACGTGTGGGGCTTACTCTCATGTAGTTCC : 37

binder 196 (ssDNA) DNA: CTACCTACGATCTGACTAGCTGGCGGTACGGGCCGTGCACCCACTTACCTGGGAAGTGAGCTTACTCTCATGTAGTTCC , Kd observed: 50

Please fill in: Kd reported for 233 (ssDNA) DNA: CTACCTACGATCTGACTAGCCACGACAGAGAACAAGGCGTTAGACGTTATCCGACCACGGCTTACTCTCATGTAGTTCC = 39

Quick note, Kd for 230 (ssDNA) DNA: CTACCTACGATCTGACTAGCTGCACACCTGAGGGTTACAAGGCGCTAGACGTAACCTCTCGCTTACTCTCATGTAGTTCC landed at 19
